A collection of compounds and their measured Ki
Molecular target: α2A adrenergic receptor (Homo sapiens, UniProt P08913)
Construct: expressed in transfected cells; host or cells: Chinese hamster lung cell line (membrane preparation)
Sequence (P08913 1-465): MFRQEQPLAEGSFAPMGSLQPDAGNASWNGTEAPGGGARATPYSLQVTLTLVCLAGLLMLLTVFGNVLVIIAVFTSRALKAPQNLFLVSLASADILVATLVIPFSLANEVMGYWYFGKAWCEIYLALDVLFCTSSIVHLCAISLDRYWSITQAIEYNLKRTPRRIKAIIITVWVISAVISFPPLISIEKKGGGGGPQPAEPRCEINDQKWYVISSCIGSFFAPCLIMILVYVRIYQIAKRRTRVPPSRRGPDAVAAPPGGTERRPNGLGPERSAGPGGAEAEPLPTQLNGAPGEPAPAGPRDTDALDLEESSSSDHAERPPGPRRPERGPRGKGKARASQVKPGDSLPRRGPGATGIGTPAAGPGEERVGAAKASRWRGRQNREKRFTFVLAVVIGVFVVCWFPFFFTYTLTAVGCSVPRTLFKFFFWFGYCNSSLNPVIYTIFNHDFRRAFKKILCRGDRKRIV
Assay: Radioligand binding, α2A adrenergic receptor ([3H]rauwolscine)

{"columns": ["compound", "Ki"],
 "data": [
  ["COc1cc(OC)c(OC)cc1CC(C)N (stereo not drawn) [TMA-2, 2,4,5-trimethoxyamphetamine]", "> 4.7 µM"],
  ["COc1cc(OCCF)c(OC)cc1CC(C)N (stereo not drawn) [MFEM]", "> 4.8 µM"],
  ["COc1cc(OCC(F)F)c(OC)cc1CC(C)N (stereo not drawn) [MDFEM]", "> 4.8 µM"]
]}

====

A collection of molecules and their measured Emax
biological target: human 5-HT2B receptor (Homo sapiens, UniProt P41595); construct: expressed in transfected cells; host or cells: HEK 293; test: Activity at the 5-HT2B receptor (FLIPR calcium, HEK 293 cells); type: cell-based; conditions: HEK293, relative to 5-HT = 100%; read-out: h5-HT2B Activation efficacy max ± SD
Sequence (P41595 whole entry): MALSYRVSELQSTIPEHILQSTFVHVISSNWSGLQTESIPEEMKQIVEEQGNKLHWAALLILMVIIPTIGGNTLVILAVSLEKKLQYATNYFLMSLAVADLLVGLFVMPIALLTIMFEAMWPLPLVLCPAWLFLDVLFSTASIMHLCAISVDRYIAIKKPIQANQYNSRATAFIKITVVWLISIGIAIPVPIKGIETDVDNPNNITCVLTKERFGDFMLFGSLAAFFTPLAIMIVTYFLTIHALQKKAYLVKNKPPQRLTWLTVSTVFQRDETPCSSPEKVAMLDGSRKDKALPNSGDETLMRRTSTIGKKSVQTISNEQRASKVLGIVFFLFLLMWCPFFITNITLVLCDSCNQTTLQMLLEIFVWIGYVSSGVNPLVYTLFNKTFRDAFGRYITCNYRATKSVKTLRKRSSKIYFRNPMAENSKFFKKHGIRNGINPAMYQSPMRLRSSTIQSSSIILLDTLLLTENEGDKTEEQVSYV
reported_endpoint: Emax (%)

{"columns": ["molecule", "reported_endpoint", "experimental_value"],
 "data": [
  ["COc1cc(OCC(F)F)c(OC)cc1CCN", "Emax", 28],
  ["COc1cc(OC(C)C)c(OC)cc1CC(C)N (stereo not drawn)", "Emax", 20],
  ["COc1cc(OCc2ccccc2)c(OC)cc1CCN", "Emax", 39]
]}

====

A collection of molecules and their measured Ki
Molecular target: 5-HT1A receptor (Homo sapiens, UniProt P08908)
Construct: expressed in transfected cells; host or cells: HEK 293 (membrane preparation)
Sequence (P08908 1-422): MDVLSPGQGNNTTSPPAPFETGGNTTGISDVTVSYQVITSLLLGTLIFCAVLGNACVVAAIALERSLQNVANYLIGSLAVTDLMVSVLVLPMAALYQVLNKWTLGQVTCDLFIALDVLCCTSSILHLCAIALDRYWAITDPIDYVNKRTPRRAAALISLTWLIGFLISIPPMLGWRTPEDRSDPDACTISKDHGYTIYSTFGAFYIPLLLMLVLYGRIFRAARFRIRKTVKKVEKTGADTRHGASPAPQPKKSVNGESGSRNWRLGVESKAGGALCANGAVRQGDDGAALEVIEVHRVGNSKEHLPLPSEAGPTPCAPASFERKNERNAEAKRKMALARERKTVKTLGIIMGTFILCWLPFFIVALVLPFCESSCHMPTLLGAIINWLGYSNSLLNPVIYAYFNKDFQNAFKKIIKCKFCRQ
Assay: Radioligand binding, 5-HT1A receptor ([3H]8-OH-DPAT)

{"columns": ["molecule", "Ki"],
 "data": [
  ["COc1cc(OC)c(OC)cc1CC(C)N (stereo not shown)", "> 17 µM"],
  ["COc1cc(OC(C)C)c(OC)cc1CC(C)N (stereo not shown)", "> 5.6 µM"],
  ["C=CCOc1cc(OC)c(CC(C)N)cc1OC (stereo not shown)", "> 5.6 µM"],
  ["COc1cc(OCC(F)(F)F)c(OC)cc1CC(C)N (stereo not shown)", "> 5.6 µM"]
]}
